# target-of-assay: protein-protein interaction between Kras and SOS1 (biotin-tagged human Kras loaded with GDP, His-tagged human SOS1) (Homo sapiens (Human), UniProt P01116, G12D)
# experiment-notes: Protein-protein interaction inhibition between Kras and SOS1 (KrasG12D-SOS PPI) using AlphaScreen
# Type: biochemical
# stated-conditions: AlphaScreen; biotin-tagged human Kras loaded with GDP, His-tagged human SOS1; read-out: KRAS G12D-SOS PPI IC50
Numbered stars: 1 amine (or outer) side, 2 acyl side, 3 side chain; on linkers, the order of the positions; unused ones are H or OH. Square brackets hold non-standard residues; d marks the D form. Peptide text beside a SMILES is read from it. hPhe(3-F,4-CF3) = N[C@@H](CCc1ccc(C(F)(F)F)c(F)c1)C(=O)O; hPhe(4-CF3) = N[C@@H](CCc1ccc(C(F)(F)F)cc1)C(=O)O; NMePhe(4-Cl) = CN[C@@H](Cc1ccc(Cl)cc1)C(=O)O; NMedβ3hAla = C[C@H](CC(=O)[*:2])N(C)[*:1]; NMeF = CN[C@@H](Cc1ccccc1)C(=O)O; NMeL = CN[C@@H](CC(C)C)C(=O)O; NMeV = CN[C@H](C(=O)O)C(C)C; d(β3hA) = C[C@@H](N)CC(=O)O; NMeA = CN[C@@H](C)C(=O)O; NMeAib = CNC(C)(C)C(=O)O; Sar = CNCC(=O)O
Attribute: IC50

| compound | unit-tag | IC50 |
| --- | --- | --- |
| CC[C@H](C)[C@@H]1NC(=O)[C@H](C)N(C)C(=O)C[C@@H](C)NC(=O)[C@H](C(C)C)N(C)C(=O)[C@H](Cc2ccccc2)N(C)C(=O)[C@H](CC(C)C)N(C)C(=O)[C@H](CCc2ccc(C(F)(F)F)c(F)c2)NC(=O)CN(C)C(=O)[C@H](Cc2ccc(Cl)cc2)N(C)C(=O)CN(C)C(=O)CN(C)C1=O [Compound 1105] (cyclo(I[Sar][Sar][NMePhe(4-Cl)][Sar][hPhe(3-F,4-CF3)][NMeL][NMeF][NMeV][d(β3hA)][NMeA])) | nM | 21 |
| CC[C@H](C)[C@@H]1NC(=O)[C@H](C)N(C)C(=O)C[C@@H](C)N(C)C(=O)[C@H](CC(C)C)NC(=O)C(C)(C)N(C)C(=O)[C@H](CC(C)C)NC(=O)[C@H](CCc2ccc(C(F)(F)F)cc2)NC(=O)CN(C)C(=O)[C@H](Cc2ccc(Cl)cc2)N(C)C(=O)CN(C)C(=O)CN(C)C1=O [Compound 323] (cyclo(I[Sar][Sar][NMePhe(4-Cl)][Sar][hPhe(4-CF3)]L[NMeAib]L[NMedβ3hAla][NMeA])) | nM | 140 |

###

# target-of-assay: protein-protein interaction between Kras and SOS1 (biotin-tagged human Kras loaded with GDP, His-tagged human SOS1) (Homo sapiens (Human), UniProt P01116, G12D)
# experiment-notes: Protein-protein interaction inhibition between Kras and SOS1 (KrasG12D-SOS PPI) using AlphaScreen
# Format: biochemical
# stated-conditions: AlphaScreen; biotin-tagged human Kras loaded with GDP, His-tagged human SOS1; read-out: KRAS G12D-SOS PPI IC50
Numbered stars: 1 amine (or outer) side, 2 acyl side, 3 side chain; on linkers, the order of the positions; unused ones are H or OH. Bridge positions count the residues as written; N and C are the ends. Square brackets hold non-standard residues; d marks the D form. Peptide text beside a SMILES is read from it. * marks the point of attachment. hPhe(3-Cl-4-CF3) = N[C@@H](CCc1ccc(C(F)(F)F)c(Cl)c1)C(=O)O; X127 = COC/C=C/CN(CC(=O)[*:2])[*:1]; NMeCha = CN[C@@H](CC1CCCCC1)C(=O)O; NMeChg = CN[C@H](C(=O)O)C1CCCCC1; NMeD = CN[C@@H](CC(=O)O)C(=O)O; NMeL = CN[C@@H](CC(C)C)C(=O)O; NMeV = CN[C@H](C(=O)O)C(C)C; NMeAbu = CC[C@H](NC)C(=O)O; NMeA = CN[C@@H](C)C(=O)O; Piperidide = C1CCN(*)CC1; Ac5c = NC1(C(=O)O)CCCC1; Aze = O=C(O)[C@@H]1CCN1; Sar = CNCC(=O)O
Attribute: IC50
measured-attribute: IC50 (nM)

| compound | measured-attribute | assay-value |
| --- | --- | --- |
| CC[C@H](C)[C@@H]1NC(=O)[C@H](CC(C)C)N(C)C(=O)C[C@@H](C(=O)N2CCCCC2)N(C)C(=O)[C@H](C2CCCCC2)N(C)C(=O)C2(CCCC2)NC(=O)CN(C/C=C/COC)C(=O)[C@H](CCc2ccc(C(F)(F)F)c(Cl)c2)NC(=O)CN(C)C(=O)[C@H](CC2CCCCC2)N(C)C(=O)CN(C)C(=O)CN(C)C1=O [Compound 2051] ([NMeL]I[Sar][Sar][NMeCha][Sar][hPhe(3-Cl-4-CF3)][X127][Ac5c][NMeChg][NMeD]-Piperidide; lactam N-11) | IC50 | 2.5 |
| CC[C@H](C)[C@@H]1NC(=O)[C@H](CC(C)C)N(C)C(=O)C[C@@H](C(=O)N2CCCCC2)N(C)C(=O)[C@H](C(C)C)N(C)C(=O)C2(CCCC2)NC(=O)[C@@H]2CCCN2C(=O)[C@H](CCc2ccc(C(F)(F)F)c(Cl)c2)NC(=O)CN(C)C(=O)[C@H](CC)N(C)C(=O)[C@@H]2CCN2C(=O)[C@H](C)N(C)C1=O [Compound 1752] ([NMeL]I[NMeA][Aze][NMeAbu][Sar][hPhe(3-Cl-4-CF3)]P[Ac5c][NMeV][NMeD]-Piperidide; lactam N-11) | IC50 | 17 |

###

# target-of-assay: protein-protein interaction between Kras and SOS1 (biotin-tagged human Kras loaded with GDP, His-tagged human SOS1) (Homo sapiens (Human), UniProt P01116, G12D)
# experiment-notes: Protein-protein interaction inhibition between Kras and SOS1 (KrasG12D-SOS PPI) using AlphaScreen;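 further: kras produced in E. coli, Ni-coupled donor beads and streptavidin acceptor beads, excitation 680 nm with emission detected at 520–620 nm via singlet oxygen transfer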
# Type: biochemical
# stated-conditions: AlphaScreen; biotin-tagged human Kras loaded with GDP, His-tagged human SOS1; read-out: KRAS G12D-SOS PPI IC50
pIC50: −log10 of the molar value. Bridge positions count the residues as written; N and C are the ends. Square brackets hold non-standard residues; d marks the D form. Peptide text beside a SMILES is read from it. * marks the point of attachment. hPhe(3-Cl-4-CF3) = N[C@@H](CCc1ccc(C(F)(F)F)c(Cl)c1)C(=O)O; NMeNle(6-CHF2) = CN[C@@H](CCCCC(F)F)C(=O)O; NMeCha = CN[C@@H](CC1CCCCC1)C(=O)O; N(CH2CH2)2CF2 = FC1(F)CCN(*)CC1; NMeD = CN[C@@H](CC(=O)O)C(=O)O; NMeL = CN[C@@H](CC(C)C)C(=O)O; NMeV = CN[C@H](C(=O)O)C(C)C; NMeA = CN[C@@H](C)C(=O)O; Piperidide = C1CCN(*)CC1; Ac5c = NC1(C(=O)O)CCCC1; Aze = O=C(O)[C@@H]1CCN1; Sar = CNCC(=O)O
Attribute: pIC50
measured-attribute: pIC50

| compound | measured-attribute | assay-value |
| --- | --- | --- |
| CC[C@H](C)[C@@H]1NC(=O)[C@H](CC(C)C)N(C)C(=O)C[C@@H](C(=O)N2CCCCC2)N(C)C(=O)[C@H](C(C)C)N(C)C(=O)C2(CCCC2)NC(=O)[C@@H]2CCCN2C(=O)[C@H](CCc2ccc(C(F)(F)F)c(Cl)c2)NC(=O)CN(C)C(=O)[C@H](CCCCC(F)F)N(C)C(=O)[C@@H]2CCN2C(=O)[C@H](C)N(C)C1=O [Compound 78] ([NMeL]I[NMeA][Aze][NMeNle(6-CHF2)][Sar][hPhe(3-Cl-4-CF3)]P[Ac5c][NMeV][NMeD]-Piperidide; lactam N-11) | pIC50 | 8.80 |
| CC[C@H](C)[C@@H]1NC(=O)[C@H](CC(C)C)N(C)C(=O)C[C@@H](C(=O)N2CCCCC2)N(C)C(=O)[C@H](C(C)C)N(C)C(=O)[C@H](C(C)C)NC(=O)[C@H](CC(=O)N2CCC(F)(F)CC2)N(C)C(=O)[C@H](CCc2ccc(C(F)(F)F)c(Cl)c2)NC(=O)CN(C)C(=O)[C@H](CC2CCCCC2)N(C)C(=O)CN(C)C(=O)CN(C)C1=O [Compound 1078] ([NMeL]I[Sar][Sar][NMeCha][Sar][hPhe(3-Cl-4-CF3)][NMeD](N(CH2CH2)2CF2)V[NMeV][NMeD]-Piperidide; lactam N-11) | pIC50 | 6.72 |
